Parameter 'readout' = pIC50; parameter 'system' = Mineralocorticoid receptor (Homo sapiens, UniProt P08235).
Sequence (P08235 whole entry): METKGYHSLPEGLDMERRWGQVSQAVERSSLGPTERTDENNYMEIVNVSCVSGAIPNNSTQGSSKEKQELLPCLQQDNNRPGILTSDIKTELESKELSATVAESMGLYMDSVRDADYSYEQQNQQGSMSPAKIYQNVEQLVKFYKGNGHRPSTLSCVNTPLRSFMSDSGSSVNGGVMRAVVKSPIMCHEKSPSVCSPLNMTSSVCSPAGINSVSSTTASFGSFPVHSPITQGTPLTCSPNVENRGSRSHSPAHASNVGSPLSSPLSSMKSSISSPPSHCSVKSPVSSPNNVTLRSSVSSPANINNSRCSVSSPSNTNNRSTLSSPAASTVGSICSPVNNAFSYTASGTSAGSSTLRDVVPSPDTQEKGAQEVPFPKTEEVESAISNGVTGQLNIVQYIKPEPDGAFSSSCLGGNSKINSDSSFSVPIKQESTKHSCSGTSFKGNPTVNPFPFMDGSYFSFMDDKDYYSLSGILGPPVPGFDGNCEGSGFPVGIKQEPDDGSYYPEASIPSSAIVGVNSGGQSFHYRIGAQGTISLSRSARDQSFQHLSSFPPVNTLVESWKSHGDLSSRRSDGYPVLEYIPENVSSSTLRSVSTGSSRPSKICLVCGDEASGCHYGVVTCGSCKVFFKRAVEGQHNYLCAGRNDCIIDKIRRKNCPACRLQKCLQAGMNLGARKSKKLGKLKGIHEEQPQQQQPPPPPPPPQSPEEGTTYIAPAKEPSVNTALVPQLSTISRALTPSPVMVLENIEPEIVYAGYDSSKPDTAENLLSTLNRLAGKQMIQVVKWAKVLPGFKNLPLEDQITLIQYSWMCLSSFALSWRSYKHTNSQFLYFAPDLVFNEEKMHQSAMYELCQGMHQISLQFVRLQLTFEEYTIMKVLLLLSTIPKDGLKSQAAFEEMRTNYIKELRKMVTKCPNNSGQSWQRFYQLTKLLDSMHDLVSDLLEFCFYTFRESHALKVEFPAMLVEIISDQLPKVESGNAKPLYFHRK
Formally, pIC50 is defined as -log10 of the concentration c, with c in mol/L.

[
  {
    "compound": "CC(O)(CC(C)(C)c1ccccc1)C(=O)Nc1ccc2c(c1)COC2=O (configuration not stated)",
    "pIC50": 7.22
  },
  {
    "compound": "CC(C)(CC(O)(CC1CCCCC1)C(=O)Nc1ccc2c(c1)COC2=O)c1ccccc1 (stereo in doubt; 6)",
    "pIC50": 6.77
  },
  {
    "compound": "Cc1noc(=O)c2ccc(NC(=O)C(O)(CC3CCCCC3)CC(C)(C)c3cc(F)ccc3O)cc12 (configuration not stated)",
    "pIC50": 6.98
  },
  {
    "compound": "CC(C)(C)c1ccc(CC(O)(CC(C)(C)c2ccccc2)C(=O)Nc2ccc3c(c2)COC3=O)cc1 (configuration not stated)",
    "pIC50": 6.76
  },
  {
    "compound": "CC(C)(CC(O)(C(=O)Nc1ccc2c(c1)COC2=O)C(F)(F)F)c1cc(F)ccc1O (configuration not stated)",
    "pIC50": 7.52
  },
  {
    "compound": "CC(C)(CC(O)(Cc1ccccc1)C(=O)Nc1ccc2c(c1)COC2=O)c1ccccc1 (configuration not stated)",
    "pIC50": 6.80
  }
]

Now look at this one.
In: # get_value(readout= pIC50, system= Mineralocorticoid receptor (Homo sapiens, UniProt P08235)) for COc1ccc(F)cc1C(C)(C)CC(O)(CNc1ccc2c(c1)COC2=O)Cc1ccccc1 (configuration not stated)
Out: 6.71

###

Biological target: Glucocorticoid receptor (Homo sapiens)
Sequence (P04150 whole entry): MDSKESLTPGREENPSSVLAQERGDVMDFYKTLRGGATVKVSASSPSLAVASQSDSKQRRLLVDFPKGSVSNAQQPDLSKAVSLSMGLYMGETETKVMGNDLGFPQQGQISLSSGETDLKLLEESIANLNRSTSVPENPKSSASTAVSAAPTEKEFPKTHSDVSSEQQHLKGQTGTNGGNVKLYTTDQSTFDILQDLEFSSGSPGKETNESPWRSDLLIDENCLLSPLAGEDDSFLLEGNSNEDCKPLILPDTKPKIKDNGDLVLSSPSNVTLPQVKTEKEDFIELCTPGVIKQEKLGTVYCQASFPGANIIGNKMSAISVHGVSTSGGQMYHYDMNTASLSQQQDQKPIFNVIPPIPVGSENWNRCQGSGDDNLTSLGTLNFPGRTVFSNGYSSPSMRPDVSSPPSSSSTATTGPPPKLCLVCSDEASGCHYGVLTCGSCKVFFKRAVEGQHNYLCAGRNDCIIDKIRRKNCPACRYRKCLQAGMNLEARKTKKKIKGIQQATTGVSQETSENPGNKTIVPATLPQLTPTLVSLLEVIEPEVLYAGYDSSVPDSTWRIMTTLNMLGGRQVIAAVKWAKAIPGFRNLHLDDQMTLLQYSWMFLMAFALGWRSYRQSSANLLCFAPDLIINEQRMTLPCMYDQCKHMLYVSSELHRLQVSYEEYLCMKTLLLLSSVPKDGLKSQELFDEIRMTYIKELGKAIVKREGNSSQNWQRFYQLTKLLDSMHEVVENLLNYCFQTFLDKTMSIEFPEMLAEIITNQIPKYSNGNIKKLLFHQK
Test: Effective concentration against inhibition of Dexamethasone induced glucocorticoid receptor transactivation of mouse mammary tumor virus luciferase gene in HeLa cells
Assay type: cell-based
recorded_metric: EC50
Note to self: number, then unit, no commentary.

[
  {
    "compound": "CC(C)(CC(O)(CC1CCCCC1)C(=O)Nc1ccc2c(c1)COC2=O)c1cc(F)ccc1O (stereo not drawn)",
    "EC50": "130 nM"
  },
  {
    "compound": "Cc1noc(=O)c2ccc(NC(=O)C(O)(CC3CCCCC3)CC(C)(C)c3cc(F)ccc3O)cc12 (stereo not drawn)",
    "EC50": "120 nM"
  }
]

In: # get_value(readout= EC50, system= Glucocorticoid receptor (Homo sapiens)) for CC(C)(CC(O)(C(=O)Nc1ccc2c(c1)COC2=O)C(F)(F)F)c1ccccc1 (stereo not drawn)
Out: 150 nM

###

target: Progesterone receptor (Homo sapiens, UniProt P06401)
Sequence (P06401 whole entry): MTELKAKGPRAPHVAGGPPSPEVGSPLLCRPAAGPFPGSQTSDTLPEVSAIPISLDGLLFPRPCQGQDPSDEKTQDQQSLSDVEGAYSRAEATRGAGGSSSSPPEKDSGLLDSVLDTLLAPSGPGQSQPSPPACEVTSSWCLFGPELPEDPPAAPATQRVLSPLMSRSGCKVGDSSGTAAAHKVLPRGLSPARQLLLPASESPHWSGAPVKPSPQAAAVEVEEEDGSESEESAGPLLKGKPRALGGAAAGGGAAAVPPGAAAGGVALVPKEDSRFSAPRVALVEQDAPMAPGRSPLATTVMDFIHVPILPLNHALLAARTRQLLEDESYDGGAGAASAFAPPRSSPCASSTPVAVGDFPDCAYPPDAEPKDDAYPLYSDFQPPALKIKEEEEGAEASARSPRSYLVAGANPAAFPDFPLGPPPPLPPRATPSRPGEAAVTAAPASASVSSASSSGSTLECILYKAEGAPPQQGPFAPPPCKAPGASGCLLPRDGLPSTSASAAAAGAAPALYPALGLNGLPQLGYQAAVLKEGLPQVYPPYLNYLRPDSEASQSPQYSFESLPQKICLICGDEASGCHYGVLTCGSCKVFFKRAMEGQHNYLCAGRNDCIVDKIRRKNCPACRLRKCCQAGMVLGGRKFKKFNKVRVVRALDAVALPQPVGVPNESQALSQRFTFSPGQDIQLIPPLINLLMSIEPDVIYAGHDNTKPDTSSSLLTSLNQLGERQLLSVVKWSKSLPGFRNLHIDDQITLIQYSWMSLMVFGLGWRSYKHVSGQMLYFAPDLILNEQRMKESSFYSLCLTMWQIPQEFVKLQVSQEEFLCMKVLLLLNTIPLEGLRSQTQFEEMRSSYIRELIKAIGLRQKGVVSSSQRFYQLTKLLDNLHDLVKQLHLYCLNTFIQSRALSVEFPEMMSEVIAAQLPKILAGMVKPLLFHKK
With a cut-off of 0.04 µM, any IC50 strictly below it is called met; any IC50 meeting it or above is called not met.

Below are worked cases with known answers.
[
  {
    "compound": "CC(C)(CC(O)(CC1CCCCC1)C(=O)Nc1ccc2c(c1)COC2=O)c1cc(F)ccc1O (centres undefined)",
    "class_name": "not met"
  },
  {
    "compound": "CC(C)(CC(O)(CCc1ccccc1)C(=O)Nc1ccc2c(c1)COC2=O)c1ccccc1 (centres undefined)",
    "class_name": "not met"
  },
  {
    "compound": "CC(C)(CC(O)(C(=O)Nc1ccc2c(c1)COC2=O)C(F)(F)F)c1cc(F)ccc1O (centres undefined)",
    "class_name": "met"
  },
  {
    "compound": "CC(C)(CC(O)(Cc1ccccc1)C(=O)Nc1ccc2c(c1)COC2=O)c1ccccc1 (centres undefined)",
    "class_name": "met"
  },
  {
    "compound": "CC(C)(CC(O)(Cc1cccc(O)c1)C(=O)Nc1ccc2c(c1)COC2=O)c1ccccc1 (centres undefined)",
    "class_name": "not met"
  }
]

In: Criterion: IC50 strictly below 0.04 µM. Is it met by CC(C)(CC(O)(Cc1ccc(-c2ccccc2)cc1)C(=O)Nc1ccc2c(c1)COC2=O)c1ccccc1 (centres undefined) ?
Out: not met

In: Criterion: IC50 strictly below 0.04 µM. Is it met by Cc1ccccc1CC(O)(CC(C)(C)c1cc(F)ccc1O)C(=O)Nc1ccc2c(c1)COC2=O (centres undefined) ?
Out: met

In: Criterion: IC50 strictly below 0.04 µM. Is it met by Cc1noc(=O)c2ccc(NC(=O)C(O)(Cc3ccccc3)CC(C)(C)c3ccccc3)cc12 (centres undefined) ?
Out: met

In: Criterion: IC50 strictly below 0.04 µM. Is it met by Cc1noc(=O)c2ccc(NC(=O)C(O)(CC3CCCCC3)CC(C)(C)c3cc(F)ccc3O)cc12 (centres undefined) ?
Out: met

###

target: UniProt:P04150
pIC50: −log10 of the molar value.
Decide using pIC50: a value greater than or equal to 7 is 1, a smaller one is -1.

[
  {
    "compound": "Cc1noc(=O)c2ccc(NC(=O)C(O)(Cc3ccccc3)CC(C)(C)c3ccccc3)cc12 (configuration not stated)",
    "target_or_system": "UniProt:P04150",
    "class_name": 1
  }
]

Let's switch to this compound now.
In: Dear colleague, could you confirm whether CC(C)(CC(Cc1ccccc1)C(=O)Nc1ccc2c(c1)COC2=O)c1ccccc1 (configuration not stated) has pIC50 at or above 7?
Out: -1

###

Molecular target: Glucocorticoid receptor (Homo sapiens)
Sequence (P04150 whole entry): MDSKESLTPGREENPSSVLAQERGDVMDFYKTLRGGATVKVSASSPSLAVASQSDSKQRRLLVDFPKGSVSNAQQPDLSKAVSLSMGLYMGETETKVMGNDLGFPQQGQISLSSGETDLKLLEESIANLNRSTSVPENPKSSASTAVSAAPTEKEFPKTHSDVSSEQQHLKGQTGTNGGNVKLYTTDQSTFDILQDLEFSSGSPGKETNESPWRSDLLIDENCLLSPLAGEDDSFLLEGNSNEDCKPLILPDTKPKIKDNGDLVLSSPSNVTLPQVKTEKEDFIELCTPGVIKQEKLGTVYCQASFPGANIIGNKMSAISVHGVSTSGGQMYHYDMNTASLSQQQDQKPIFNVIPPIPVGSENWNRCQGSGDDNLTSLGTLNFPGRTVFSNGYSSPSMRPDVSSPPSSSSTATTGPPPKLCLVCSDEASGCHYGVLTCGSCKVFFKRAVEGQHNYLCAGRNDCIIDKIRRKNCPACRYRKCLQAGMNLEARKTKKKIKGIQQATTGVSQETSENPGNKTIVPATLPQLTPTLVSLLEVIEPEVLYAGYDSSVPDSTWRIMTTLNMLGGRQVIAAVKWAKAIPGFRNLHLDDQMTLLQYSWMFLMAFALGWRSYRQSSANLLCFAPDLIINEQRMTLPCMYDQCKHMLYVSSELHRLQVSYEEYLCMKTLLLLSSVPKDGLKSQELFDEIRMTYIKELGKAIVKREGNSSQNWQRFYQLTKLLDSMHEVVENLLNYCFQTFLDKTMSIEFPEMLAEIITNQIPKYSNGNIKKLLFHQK
With a cut-off of 20 nM, any IC50 strictly below it is called Y; any IC50 meeting it or above is called N.

Below are worked cases with known answers.
[
  {
    "compound": "CC(C)(CC(O)(C(=O)Nc1ccc2c(c1)COC2=O)C(F)(F)F)c1cc(F)ccc1O (stereo not given)",
    "class_name": "Y"
  },
  {
    "compound": "CC(C)(CC(O)(Cc1ccccc1)C(=O)Nc1ccc2c(c1)COC2=O)c1ccccc1 (stereo not given)",
    "class_name": "Y"
  },
  {
    "compound": "CC(C)(CC(O)(Cc1ccccc1O)C(=O)Nc1ccc2c(c1)COC2=O)c1ccccc1 (stereo not given)",
    "class_name": "N"
  },
  {
    "compound": "CC(C)(CC(O)(Cc1cccc(O)c1)C(=O)Nc1ccc2c(c1)COC2=O)c1ccccc1 (stereo not given)",
    "class_name": "N"
  },
  {
    "compound": "CC(C)(C)c1ccc(CC(O)(CC(C)(C)c2ccccc2)C(=O)Nc2ccc3c(c2)COC3=O)cc1 (stereo not given)",
    "class_name": "N"
  },
  {
    "compound": "CC(C)(CC(O)(Cc1cc(O)cc(O)c1)C(=O)Nc1ccc2c(c1)COC2=O)c1ccccc1 (stereo not given)",
    "class_name": "N"
  },
  {
    "compound": "COc1ccc(F)cc1C(C)(C)CC(O)(C(=O)Nc1ccc2c(c1)COC2=O)C(F)(F)F (stereo not given)",
    "class_name": "N"
  },
  {
    "compound": "CC(C)(CC(O)(Cc1ccc(-c2ccccc2)cc1)C(=O)Nc1ccc2c(c1)COC2=O)c1ccccc1 (stereo not given)",
    "class_name": "N"
  }
]

In: Criterion: IC50 strictly below 20 nM. Is it met by Cc1noc(=O)c2ccc(NC(=O)C(O)(CC3CCCCC3)CC(C)(C)c3cc(F)ccc3O)cc12 (stereo not given) ?
Out: Y
